# EXPERIMENTAL_TARGET: GalNAc(b1-4)GlcNAc(b1-2)Man
# METHOD: glycan array binding signal (z-score within array); higher = stronger binding
# PROTOCOL_CONDITIONS: glycan notation: IUPAC condensed, linker removed
This is one part of a sample in which the strongest signals are shown more often than they occur.
Reported glycan array binding signal (z-score) by item:
MEASURED_QUANTITY: glycan array binding signal (z-score)

LF82 (Escherichia coli) (protein) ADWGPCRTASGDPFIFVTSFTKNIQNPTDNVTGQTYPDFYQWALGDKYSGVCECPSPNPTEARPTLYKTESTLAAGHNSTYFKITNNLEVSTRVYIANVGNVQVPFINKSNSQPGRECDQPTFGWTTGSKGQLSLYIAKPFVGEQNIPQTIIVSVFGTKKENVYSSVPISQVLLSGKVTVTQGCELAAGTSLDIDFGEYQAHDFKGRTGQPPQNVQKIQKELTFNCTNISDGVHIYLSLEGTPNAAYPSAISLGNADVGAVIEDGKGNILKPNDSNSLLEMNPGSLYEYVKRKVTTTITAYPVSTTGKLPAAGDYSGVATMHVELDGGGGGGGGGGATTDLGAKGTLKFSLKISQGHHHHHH = 0.518
Epa22 (Candida glabrata) (protein) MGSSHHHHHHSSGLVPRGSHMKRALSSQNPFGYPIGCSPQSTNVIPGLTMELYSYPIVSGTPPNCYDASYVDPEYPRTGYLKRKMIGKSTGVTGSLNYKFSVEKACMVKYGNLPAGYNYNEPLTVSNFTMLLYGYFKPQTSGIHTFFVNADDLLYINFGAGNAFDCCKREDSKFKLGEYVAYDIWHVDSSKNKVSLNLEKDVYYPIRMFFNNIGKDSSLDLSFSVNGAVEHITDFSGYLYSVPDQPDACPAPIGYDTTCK = -0.393
HA-00510 (Pseudomonas aeruginosa), Q02V39_PSEAB (protein) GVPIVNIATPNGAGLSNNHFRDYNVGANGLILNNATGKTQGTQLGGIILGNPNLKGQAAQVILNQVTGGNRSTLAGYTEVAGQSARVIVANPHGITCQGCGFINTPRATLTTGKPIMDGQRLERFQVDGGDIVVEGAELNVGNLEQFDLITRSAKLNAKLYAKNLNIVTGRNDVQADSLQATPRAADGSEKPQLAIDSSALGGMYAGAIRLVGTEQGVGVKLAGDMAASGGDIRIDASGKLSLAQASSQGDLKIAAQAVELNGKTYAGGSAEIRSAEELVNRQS = -1.01
Apa (Mycobacterium tuberculosis), Rv1860 (protein) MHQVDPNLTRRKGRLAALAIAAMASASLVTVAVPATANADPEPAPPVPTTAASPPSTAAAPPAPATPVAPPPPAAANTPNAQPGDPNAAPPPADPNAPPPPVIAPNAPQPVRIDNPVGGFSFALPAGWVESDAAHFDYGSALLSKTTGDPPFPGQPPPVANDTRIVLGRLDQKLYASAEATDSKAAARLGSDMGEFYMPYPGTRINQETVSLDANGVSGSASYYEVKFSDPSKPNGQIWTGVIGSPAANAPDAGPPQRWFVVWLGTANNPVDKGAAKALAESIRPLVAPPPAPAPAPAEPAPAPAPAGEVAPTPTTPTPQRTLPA = -0.412
